Target: HLA-A*0101 (Homo sapiens, UniProt P04439, A114D/A174V/A182V/D101N/D185E/E176A/E190D/L180R/Q94H/R68K/S129P/T187R/V100A/V91M/W191G)
Test: HLA class I peptide binding assay (purified HLA, IC50)
pIC50: −log10 of the molar value. Ends that are not written are not given here.
Property: pIC50

INSERT INTO assay_data (substance, meas_value) VALUES
  ('LTFGRETVLEY [core 137]', 7.10),
  ('H-YSLNFMGY-OH [pol 580]', 6.42);

The reported numbers originate from patent US7507803B2.
